Tested on: Bacillus subtilis
Assay: Zone of inhibition of Bacillus subtilis at compound concentration of 160 mg/mL
Type: functional
Rule: Inhibition under 10 mm gives 0 (no), otherwise 1 (yes).

>>> qualitativelabel("COc1ccc(Cl)cc1C(=O)NCNc1ccc(S(=O)(=O)[N-]C(C)=O)cc1.[Na+]")
"1 (yes)"
>>> qualitativelabel("COc1ccc(Cl)cc1C(=O)NCN1CCOCC1")
"1 (yes)"
>>> qualitativelabel("COc1ccc(Cl)cc1C(=O)NCN(CCO)CCO")
"0 (no)"
>>> qualitativelabel("COc1ccc(Cl)cc1C(=O)NCN(c1ccccc1)c1ccccc1")
"0 (no)"
>>> qualitativelabel("CC(=O)[N-]S(=O)(=O)c1ccc(N)cc1.[Na+]")
"1 (yes)"
>>> qualitativelabel("COc1ccc(Cl)cc1C(=O)NCNc1ccc(S(=O)(=O)Nc2ncccn2)cc1")
"0 (no)"

Could you now consider this next compound?
Item Nc1ccc(S(=O)(=O)Nc2ncccn2)cc1 with Inhibition of 10 mm or above?
1 (yes)

All figures here come from ChEMBL document CHEMBL1145222.
